# target.of.assay: T1, IRF4 DBD C99R (Homo sapiens, UniProt Q15306 20-132, C99R)
# T1 sequence: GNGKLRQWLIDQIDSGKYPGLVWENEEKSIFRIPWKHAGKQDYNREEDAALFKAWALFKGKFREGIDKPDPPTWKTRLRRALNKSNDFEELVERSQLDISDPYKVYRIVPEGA
# experiment.summary: FP; FP: PBS + 0.05% Tween20, 5 nM DNA, 1 h, room temperature; SPR: Biacore S200, SA chip, protein 0.1-4500 nM, running buffer not given in material; errors are SD
# condition.label: protein: recombinant; tags: N-terminal His8-linker-His8-TEV, cleaved; label: 3' fluorescein (FAM); hairpin, TTTT loop
observed.property: Kd

Exercise: Would you kindly share the measured Kd for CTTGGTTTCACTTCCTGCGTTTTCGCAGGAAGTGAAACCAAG (structured_DNA) [IRE hairpin (FAM)] ?
Solution: 279 nM
